The reported measurements were obtained from patent US9957264B2.

Target: JAK2 (recombinant purified GST-tagged catalytic domain) (Homo sapiens (Human))
Sequence (O60674 849-1124): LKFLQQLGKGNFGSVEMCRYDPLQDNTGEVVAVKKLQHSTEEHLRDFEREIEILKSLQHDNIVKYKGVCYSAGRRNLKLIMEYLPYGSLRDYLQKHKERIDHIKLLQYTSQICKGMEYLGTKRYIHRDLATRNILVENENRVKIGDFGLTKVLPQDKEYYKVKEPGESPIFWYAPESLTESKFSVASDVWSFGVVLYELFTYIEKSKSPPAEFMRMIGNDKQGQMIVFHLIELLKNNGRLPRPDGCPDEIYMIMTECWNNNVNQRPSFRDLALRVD
Experiment: Jak Biochemical HTRF Assay (JAK2)
Details: [ATP] 8.5 μM
Description: Jak Biochemical HTRF Assay Protocol The ability of compounds to inhibit the activity of JAK1, JAK2, JAK3, and Tyk2 was measured using a recombinant purified GST-tagged catalytic domain for each enzyme (Invitrogen JAK1 #M4290, JAK2 #M4290, JAK3 #M4290, Tyk2 #M4290) in an HTRF format biochemical assay. […] Plates were shaken and centrifuged and then incubated 60 minutes at room temperature and then read on a Perkin Elmer Envision (λex=337 nm, λem=665 and 615 nm, TRF delay time=20 μs). […]
pIC50: −log10 of the molar value.
observable: pIC50

CN(C)S(=O)(=O)c1ccc(Nc2nn([C@]3(CC#N)CC[C@@H](C(=O)OC(C)(C)C)OC3)c3cc[nH]c(=O)c23)cc1 | 9.85

P. N#CC[C@@]1(n2nc(Nc3ccc(Cl)cc3)c3c(=O)[nH]ccc32)CCOC1 (single isomer, unassigned)
Q. N#CC[C@]1(n2nc(Nc3ccc(C(F)(F)F)cc3)c3c(=O)[nH]ccc32)CC[C@@H](Nc2ccccc2)CC1
Which record shows the lower pIC50: the first, P , or the second, Q ? # answer = label of selected item Q
(Q: 5.89, P: 7.63)

* * *

Molecular target: JAK1 (recombinant purified GST-tagged catalytic domain) (Homo sapiens (Human))
Assay: Jak Biochemical HTRF Assay (JAK1)
Conditions: [ATP] 31.8 μM
observable: IC50 (pM)

1. CN(C)C(=O)c1ccc2cc(Nc3nn([C@]4(CC#N)CC[C@@H](C(=O)OC(C)(C)C)OC4)c4cc[nH]c(=O)c34)ccc2n1
2. CCOC(=O)C(C)(C)C(O)(c1ccc(Nc2nn([C@]3(CC#N)CCCOC3)c3cc[nH]c(=O)c23)cc1)C(F)(F)F (single isomer, unassigned) [Example 5-113]
Thinking about recorded IC50 values, which is higher, 1 or 2 ? Refer to your chosen entry by its label in the reply. 2
(2: 280 pM, 1: 110 pM)

* * *

Biological target: JAK1 (recombinant purified GST-tagged catalytic domain) (Homo sapiens (Human), UniProt P23458)
Sequence (P23458 875-1153): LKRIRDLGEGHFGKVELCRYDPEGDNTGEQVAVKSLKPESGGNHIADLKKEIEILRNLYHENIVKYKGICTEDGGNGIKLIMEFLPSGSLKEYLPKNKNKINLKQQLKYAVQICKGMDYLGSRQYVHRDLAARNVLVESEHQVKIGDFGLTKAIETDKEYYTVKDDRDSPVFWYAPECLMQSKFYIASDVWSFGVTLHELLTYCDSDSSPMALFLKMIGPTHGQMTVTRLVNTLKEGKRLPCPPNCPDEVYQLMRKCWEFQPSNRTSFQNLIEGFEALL
Assay: Jak Biochemical HTRF Assay (JAK1)
Conditions: [ATP] 31.8 μM
observable: IC50 (nM)

N#CC[C@]1(n2nc(Nc3ccc(OC(F)(F)F)cc3)c3c(=O)[nH]ccc32)CC[C@H](Nc2ccccc2)CC1 | 7.27

a. CC(C)(C)OC(=O)[C@@H]1CC[C@@](CC#N)(n2nc(Nc3ccc4c(c3)CC(C)(C)C4(O)C(F)(F)F)c3c(=O)[nH]ccc32)CO1 (single isomer, unassigned) [Example 5-165]
b. CC(C)c1ccc(CN2CCC(CC#N)(n3nc(Nc4ccc(S(=O)(=O)N(C)C)cc4)c4c(=O)[nH]ccc43)CC2)cc1
c. CCNC(c1ccc(Nc2nn([C@@]3(CC#N)CCCC[C@H]3F)c3cc[nH]c(=O)c23)cc1)C(F)(F)F (single isomer, unassigned) [Example 5-174]
Highest IC50 first, then in falling order down to the smallest. // format: requested-order list of labels b, a, c

* * *

Target: JAK2 (recombinant purified GST-tagged catalytic domain) (Homo sapiens (Human))
Experiment: Jak Biochemical HTRF Assay (JAK2)
Conditions: [ATP] 8.5 μM
pIC50: −log10 of the molar value.
observable: pIC50

Cc1nc2ccc(Nc3nn(C4(CC#N)CCCOC4)c4cc[nH]c(=O)c34)cc2s1 (stereo in doubt) [Example 21-5] | 8.88
CC(C)(C)OC(=O)[C@@H]1CC[C@@](CC#N)(n2nc(Nc3ccc(C4(C(F)(F)F)CCNC4)cc3)c3c(=O)[nH]ccc32)CO1 (single isomer, unassigned) [Example 5-285] | 9.68
CC(C)(C)OC(=O)[C@@H]1CC[C@@](CC#N)(n2nc(Nc3ccc4ncccc4c3)c3c(=O)[nH]ccc32)CO1 [Example 5-215] | 9.20
CN(C)S(=O)(=O)c1ccc(Nc2nn([C@]3(CC#N)CCCOC3)c3cc[nH]c(=O)c23)cc1 [Example 5-28] | 9.54
CS(=O)(=O)NC(=O)[C@@H]1CC[C@@](CC#N)(n2nc(Nc3ccc(Cl)cc3)c3c(=O)[nH]ccc32)CO1 [Example 22] | 7.63
CC(C)OC(=O)C(C)(C)C(O)(c1ccc(Nc2nn([C@]3(CC#N)CC[C@@H](C(=O)OC(C)(C)C)OC3)c3cc[nH]c(=O)c23)cc1)C(F)(F)F (single isomer, unassigned) [Example 5-162] | 7.89

I. CC(C)OC(=O)N1CCC(CC#N)(n2nc(Nc3ccc(S(=O)(=O)N(C)C)cc3)c3c(=O)[nH]ccc32)CC1 [Example 10-6]
II. CC(C)(C)N1Cc2cc(Nc3nn([C@]4(CC#N)CC[C@H](N5CC(F)C5)CC4)c4cc[nH]c(=O)c34)ccc2S1(=O)=O [Example 18-36]
Given I and given II , which shows the smaller recorded pIC50? Indicate your choice by writing its label. II

1. Cc1cc(Nc2nn([C@@]3(CC#N)CCOC[C@H]3F)c3cc[nH]c(=O)c23)ccc1C(=O)N1CCOCC1 (single isomer, unassigned) [Example 5-257]
2. Cc1cc(Nc2nn([C@]3(CC#N)CCOC[C@@H]3F)c3cc[nH]c(=O)c23)ccc1C(=O)N1CCSCC1 (single isomer, unassigned) [Example 5-262]
Consider 1 and 2 . Which of these has its pIC50 at a higher number? Which one? Tell me its label. 2
(2: 10.10, 1: 8.50)
